target: T1, human A-beta(1-40) peptide, monomeric (BAM) (human, biotin at the C-terminus in capture ELISA, SPR and TR-FRET; not biotinylated where coated directly (Example 7)); assay: BAM ELISA
T1 construct: synthetic peptide (Anaspec), TFA/HFIP treated to give monomer; also called monomeric A-beta
property label: log10 EC50 (log10 of the value in nM)
In plain terms, each number is the log10 of measured EC50 in nM.

Known log10 EC50 results, listed for orientation:
>>> observed("ABII60A10 = ABII050 (VHH) VHH: EVQLVESGGGLVQAGGSLRLSCAASGRTFNNYNMGWFRQAPGKEREFVAAVSRSGVSTYYADSVKGRFTISRDNAKNAVYLQMNSLKPEDTAIYYCGAAYRGTAINVRRSYDSWGQGTQVTVSS")
0.69
>>> observed("ABII42D4 (VHH, also called ABIIPMP42D4) VHH: EVQLVESGGGLVLAGGSLRLSCVHSGPTFSTDTMGWFRQAPGKEREFVAAVTWNSGRTNYADSVKGRFTVSRDNTRNAAYLQMSGLKDEDTAVYYCTAHRLVVGGTSVGDWRYWGQGTQVTVSS")
1.15

Entry under review: reference VHH 2D2 (VHH, from WO2006/40153, made and purified like the other VHHs) VHH: AVQLVDSGGGLVQAGGSLRLSCAVSGGTFSSIGMGWFRQAPGKEREFVGAISRSGDSTYYADSVKGRFTISRDGAKNTVYLQMNSLKDEDTAVYYCAGRPAGTAINIRRSYNYWGQGTQVTVSS . Reported log10 EC50?
1.20

If you can, please state the reported log10 EC50 value of Fab fragment of monoclonal antibody m266 (Fab, V domains shown, also called Fab266; m266Fab) VH: EVKLVESGGGLVQPGGSLKLSCAVSGFTFSRYSMSWVRQTPEKRLELVAQINSVGNSTYYPDTVKGRFTISRDNAEYTLSLQMSGLRSDDTATYYCASGDYWGQGTTLTVSS VL: DVVMTQTPLSLPVSLGDQASISCRSSQSLIYSDGNAYLHWFLQKPGQSPKLLIYKVSNRFSGVPDRFSGSGSGTDFTLKISRVETEDLGVYFCSQSTHVPWTFGGGTKLEIK .
0.26

Recorded log10 EC50 for reference VHH 2G6 (VHH, from WO2006/40153) VHH: QVKLEESGGGLVQPGGSLRLSCAASGFTFSNYWMYWVRQAPGKGLEWVSTISPRAANTYYADSVKGRFTISRDNAKNTLYLQMNSLEPDDTALYYCAKSLRYRDRPQSSDFLFWRQGTQVTVSS , please?
1.99
